// provenance: patent US8906906B2

target or system: His6-tagged HIV-1 integrase / flag-LEDGF/p75 interaction (Human immunodeficiency virus type 1 group M subtype B, UniProt P04585)
Construct: His6-tagged HIV-1 integrase; made in house
experiment: AlphaScreen assay of LEDGF-integrase interaction inhibition
Assay type: binding
test parameters: read-out: % inhibition at 100 μM in IN-LEDGF alphascreen (values marked *)
assay metric: inhibition at 100 µM (%)
Answer format: numeric, % implied, no suffix.

*Q* What does the data say about its inhibition at 100 µM? Entry: CCCC(C(=O)O)c1c(C)nc(-c2ccccc2)nc1-c1ccc2ccccc2c1 (stereo not shown)
*A* 61

*Q* Please give the measured inhibition at 100 µM for this compound: CCCC(C(=O)O)c1c(C)nc(-c2ccccc2)nc1-c1ccc2c(ccn2C)c1 (stereo not shown)
*A* 46

*Q* // inhibition at 100 µM lookup, key: CCCC(C(=O)O)c1c(C)nc(-c2ccccc2)nc1Oc1ccccc1 (stereo not shown)
*A* 58

*Q* Any idea what inhibition at 100 µM was measured for CCCC(C(=O)O)c1c(C)nc(-c2ccccc2)nc1-c1ccc2c(c1)OCCN2C (stereo not shown) ?
*A* 46

*Q* Reported inhibition at 100 µM for CCCC(C(=O)O)c1c(C)nc(-c2ccccc2)nc1-c1ccc(Cl)cc1OC (stereo not shown) : what is it?
*A* 40

*Q* # inhibition at 100 µM lookup, item CCCC(C(=O)O)c1c(C)nc(-c2ccccc2)nc1-c1ccc2ccn(C)c2c1 (stereo not shown)
*A* 51

*Q* So what's the measured inhibition at 100 µM for this one? CCCC(C(=O)O)c1c(C)nc(-c2ccccc2)nc1-c1ccc(C)cc1OC (stereo not shown)
*A* 48

* * *

What CC50 was measured for each of the following?
experiment: Cytotoxicity in mock-infected MT-4 cells (MTT)
Assay type: cell-based
test parameters: human, read-out: CC50 in MT4-IIIB (μm)
Numbers only; they are read as µM.

*Q* Fill blank: measured CC50 of the compound CCCC(C(=O)O)c1c(C)nc(N2CCCN(Cc3ccccc3)CC2)nc1-c1ccc(C)cc1 (centres unmarked) is ____.
*A* 7

*Q* What value of CC50 has been reported for the following compound? CCCC(C(=O)O)c1c(C)nc(N2CC(C)CC(C)C2)nc1-c1ccc(C)cc1 (centres unmarked)
*A* 57

* * *

Exercise: for every item that follows, state its recorded pIC50.
target or system: His6-tagged HIV-1 integrase / flag-LEDGF/p75 interaction (Human immunodeficiency virus type 1 group M subtype B)
Construct: His6-tagged HIV-1 integrase
experiment: AlphaScreen assay of LEDGF-integrase interaction inhibition
test parameters: compounds tested from 0.1 up to 100 μM
Conceptually, pIC50 converts a concentration in mol/L into minus its log10.

*Q* Name the reported pIC50 value associated with the compound CCCC(C(=O)O)c1c(C)nc(-c2ccccc2)nc1-c1ccc(C)cc1F (stereo not drawn)
*A* 4.87

*Q* // lookup pIC50 for CCCC(C(=O)O)c1c(C)nc(N2CC(C)CC(C)C2)nc1-c1ccc(C)cc1 (stereo not drawn)
*A* 4.76

*Q* I'd like to know its pIC50. The compound in question is CCCC(C(=O)O)c1c(C)nc(N2CC[C@H](N(C)C)C2)nc1-c1ccc(C)cc1 (stereo partly drawn)
*A* 5.44

*Q* For the compound shown here, CCCC(C(=O)O)c1c(C)nc(N2CCC(NC(=O)c3ccccc3)CC2)nc1-c1ccc(C)cc1 (stereo not drawn) , give the reported pIC50.
*A* 5.41

*Q* Field request: pIC50 | item: CCCC(C(=O)O)c1c(C)nc(-c2ccccc2)nc1-c1ccc2c(c1)CCO2 (stereo not drawn)
*A* 4.83

*Q* If you can, please state the reported pIC50 value of CCCC(C(=O)O)c1c(C)nc(N2CCCC(C)C2)nc1-c1ccc(C)cc1 (stereo not drawn) .
*A* 4.60

*Q* Endpoint output: pIC50 of CCCC(C(=O)O)c1c(C)nc(-c2ccccc2)nc1-c1ccc2c(c1)CCCO2 (stereo not drawn) . Value?
*A* 4.21

*Q* Request the reported pIC50 associated with COCCC(C(=O)O)c1c(C)nc(N2CCCCC2)nc1-c1ccc(C)cc1 (stereo not drawn)
*A* 4.22

*Q* Which value of pIC50 has been reported for CCCC(C(=O)O)c1c(C)nc(N2CCCCC2)nc1N1CCCCC1 (stereo not drawn) in the records?
*A* 4.47

*Q* Item CCCC(C(=O)O)c1c(C)nc(-c2ccc(C)cc2)nc1-c1ccc(C)cc1 (stereo not drawn) has what recorded pIC50?
*A* 4.51

*Q* Looking for the measured pIC50 of CCCC(C(=O)O)c1c(C)nc(N2CCc3ccccc3C2)nc1-c1ccc(C)cc1 (stereo not drawn) , can you help?
*A* 4.76

*Q* Value lookup for pIC50; key = Cc1ccc(-c2nc(N3CCCCC3)nc(C)c2C(CCCC(F)(F)F)C(=O)O)cc1 (stereo not drawn)
*A* 4.70

*Q* Query: pIC50; subject: CCCC(C(=O)O)c1c(C)nc(N2CCCCC2)nc1-c1ccc(C)cc1 (stereo not drawn)
*A* 5.32

*Q* Which value of pIC50 has been reported for CCCC(C(=O)O)c1c(C)nc(-c2ccccc2)nc1-c1ccc(C)cc1 (stereo not drawn) in the records?
*A* 4.66

*Q* Requested field: pIC50. Item: CCCC(C(=O)O)c1c(C)nc(-c2ccccc2Cl)nc1-c1ccc(C)cc1 (stereo not drawn)
*A* 4.05

*Q* Look up pIC50: CCCC(C(=O)O)c1c(C)nc(-c2ccccc2)nc1-c1ccc(C)c(C)c1 (stereo not drawn)
*A* 4.55

*Q* # get_value(readout='pIC50', item= CCCC(C(=O)O)c1c(C)nc(N2CCCN(CC)CC2)nc1-c1ccc(C)cc1 (stereo not drawn) )
*A* 4.13

*Q* // lookup pIC50 for Cc1ccc(-c2nc(N3CCCCC3)nc(C)c2C(Cc2ccccc2)C(=O)O)cc1 (stereo not drawn)
*A* 4.57

* * *

experiment: Cytotoxicity in mock-infected MT-4 cells (MTT)
Type: cell-based
test parameters: human, read-out: CC50 in MT4-IIIB (μm)
Method: A rapid and automated assay procedure was used for the in vitro evaluation of anti-HIV agents. […] The viability of both HIV-and mock-infected cells was assessed spectrophotometrically via in situ reduction of 3-(4,5-dimethylthiazol-2-yl)-2,5-diphenyltetrazolium bromide (MTT). […] The percent protection achieved by the compound in HIV-infected cells was calculated by the following formula: […]
assay metric: CC50 (µM)
Numbers only here, please. The scale is µM.

*Q* Quick one: CC50 of CCCC(C(=O)O)c1c(C)nc(N2CCc3ccccc3C2)nc1-c1ccc(C)cc1 (stereo not shown) [cpd 42] ?
*A* 26

*Q* Return reported CC50; argument: CCCC(C(=O)O)c1c(C)nc(-c2ccccc2)nc1-c1ccc2[nH]c(=O)[nH]c2c1 (stereo not shown) [cpd 100]
*A* 96

*Q* Suppose we examine the compound CCCC(C(=O)O)c1c(C)nc(N2CCCCC2)nc1-c1ccc(C)cc1C (stereo not shown) [cpd 132] ; what CC50 value has been reported?
*A* 84.5

*Q* Could you tell me which CC50 is on file for CCCC(C(=O)O)c1c(C)nc(N2CC[C@H](N(C)C)C2)nc1-c1ccc(C)cc1 (stereo partly shown) [cpd 52] ?
*A* 101

*Q* Which CC50 value is on record for CCCC(C(=O)O)c1c(C)nc(NCc2ccccc2)nc1-c1ccc(C)cc1 (stereo not shown) [cpd 168] ?
*A* 128

*Q* Record request: CC50 value, item CCCC(C(=O)O)c1c(C)nc(N2CCCCC2)nc1-c1ccc(Cl)cc1F (stereo not shown) [cpd 146]
*A* 72

*Q* Consider the compound CCCC(C(=O)O)c1c(C)nc(N2CCCCC2)nc1-c1ccc(OC)cc1F (stereo not shown) [cpd 136] and give its measured CC50.
*A* 127

*Q* # CC50 lookup, item Cc1ccc(-c2nc(N3CCCCC3)nc(C)c2C(CC(C)(C)C)C(=O)O)cc1 (stereo not shown) [cpd 152]
*A* 72

*Q* Recorded CC50 for CCCC(C(=O)O)c1c(C)nc(-c2ccccc2)nc1-c1ccc(Cl)cc1F (stereo not shown) [cpd 94] , please?
*A* 81

*Q* Could you tell me which CC50 is on file for CCCC(C(=O)O)c1c(C)nc(NCC(C)(C)C)nc1-c1ccc(C)cc1 (stereo not shown) [cpd 174] ?
*A* 155

*Q* For CCCC(C(=O)O)c1c(C)nc(-c2ccccc2)nc1N1CCCCCC1 (stereo not shown) [cpd 62] , what is its reported CC50?
*A* 131

*Q* For the compound shown here, CCCC(C(=O)O)c1c(C)nc(N(C)C)nc1-c1ccccc1 (stereo not shown) [cpd 2] , give the reported CC50.
*A* 164

*Q* Quick one: CC50 of CCCC(C(=O)O)c1c(C)nc(N2CCCCC2)nc1-c1ccccc1 (stereo not shown) [cpd 20] ?
*A* 120

*Q* For CCCC(C(=O)O)c1c(C)nc(-c2ccccc2)nc1-c1ccc(C)cc1 (stereo not shown) [cpd 14] , what is its reported CC50?
*A* 120

*Q* // CC50 lookup, key: CCCC(C(=O)O)c1c(C)nc(-c2ccccc2)nc1-c1ccc2c(c1)CCO2 (stereo not shown) [cpd 70]
*A* 90

*Q* Need CC50, item CCCC(C(=O)O)c1c(C)nc(-c2ccccc2)nc1-c1ccc2sccc2c1 (stereo not shown) [cpd 88]
*A* 121

*Q* Data request, read-out CC50, for CCCC(C(=O)O)c1c(C)nc(-c2ccccc2)nc1N1CCCCC1 (stereo not shown) [cpd 60]
*A* 61

*Q* Please give the measured CC50 for this compound: CCCC(C(=O)O)c1c(C)nc(N2CCCCC2)nc1-c1ccc(C)cc1Cl (stereo not shown) [cpd 144]
*A* 72.5

*Q* Consider the compound CCCC(C(=O)O)c1c(C)nc(N2CCCC(c3ccccc3)C2)nc1-c1ccc(C)cc1 (stereo not shown) [cpd 50] and give its measured CC50.
*A* 28

*Q* Item under review: CCCC(C(=O)O)c1c(C)nc(N2CCCCC2)nc1-c1ccc(C)cc1 (stereo not shown) [cpd 22] . Reported CC50?
*A* 100

*Q* Requested field: CC50. Item: CCCC(C(=O)O)c1c(C)nc(-c2ccccc2)nc1-c1ccc(C)cc1O (stereo not shown) [cpd 119]
*A* 120

*Q* // CC50 lookup, key: CCCC(C(=O)O)c1c(C)nc(N2CCCC(C(=O)NCC(C)C)C2)nc1-c1ccc(C)cc1 (stereo not shown) [cpd 38]
*A* 144

*Q* For the compound shown here, CCCC(C(=O)O)c1c(C)nc(-c2ccccc2O)nc1-c1ccc(C)cc1 (stereo not shown) [cpd 158] , give the reported CC50.
*A* 119

*Q* Data request, read-out CC50, for Cc1ccc(-c2nc(N3CCCCC3)nc(C)c2C(OC(C)(C)C)C(=O)O)cc1 (stereo not shown) [cpd 154]
*A* 118

*Q* For CCCC(C(=O)O)c1c(C)nc(-c2ccccc2)nc1-c1ccc(C(C)C)cc1 (stereo not shown) [cpd 106] , what is its reported CC50?
*A* 32

*Q* What does the data say about its CC50? Entry: CCCC(C(=O)O)c1c(C)nc(-c2ccccc2)nc1Oc1ccccc1 (stereo not shown) [cpd 78]
*A* 102

*Q* Given CCCC(C(=O)O)c1c(C)nc(-c2ccccc2)nc1-c1ccc(C(F)(F)F)cc1 (stereo not shown) [cpd 108] , state its recorded CC50.
*A* 47

*Q* Using the record for CCCC(C(=O)O)c1c(C)nc(N2CCCCC2)nc1-c1ccc(F)cc1F (stereo not shown) [cpd 130] , report its CC50.
*A* 99

*Q* What CC50 value was documented for this compound, CCCC(C(=O)O)c1c(C)nc(-c2ccccc2)nc1-c1ccc(C)cc1OC (stereo not shown) [cpd 120] ?
*A* 124

*Q* Give the measured CC50 of CCCC(C(=O)O)c1c(C)nc(N2CCCCCC2)nc1-c1ccc(C)cc1 (stereo not shown) [cpd 36] .
*A* 58

*Q* Reported CC50, compound CCCC(C(=O)O)c1c(C)nc(-c2ccccc2)nc1-c1ccc2ccn(C)c2c1 (stereo not shown) [cpd 92] : ____
*A* 113

*Q* Need CC50, item CCCC(C(=O)O)c1c(C)nc(N2CCCCC2)nc1N1CCCCC1 (stereo not shown) [cpd 148]
*A* 138

*Q* Entry CCCC(C(=O)O)c1c(C)nc(-c2ccccc2)nc1-c1ccc(Cl)cc1 (stereo not shown) [cpd 102] has what CC50?
*A* 143

*Q* Which measured CC50 value corresponds to Cc1ccc(-c2nc(N3CCCCC3)nc(C)c2C(CCCC(F)(F)F)C(=O)O)cc1 (stereo not shown) [cpd 124] ?
*A* 124
